Tested on: Staphylococcus aureus
Assay: Antimicrobial activity against methicillin-resistant Staphylococcus aureus CBD-635 assessed as complete inhibition of bacterial growth after overnight incubation
Format: functional
I'd appreciate it if you could supply MIC values for the items below.

Below: 4 compounds and their reported MIC.
1) COc1cccc2nc(NC(C)C)nc(NCc3ccco3)c12	> 80 µM
2) CSCCNc1nc(NC(C)C)nc2ccccc12	> 360 µM
3) CC(C)Nc1nc(NC2CCCC2)c2ccccc2n1	37 µM
4) COc1ccc(CNc2nc(NCc3ccccc3)c3ccc(Cl)cc3n2)cc1	22 µM

Now for another entry.
I would be grateful if you could share the reported MIC for CCCCNc1nc(Nc2ccccc2)c2ccccc2n1 .
34 µM

----------
I'd appreciate it if you could supply MIC values for the items below.
Test system: Staphylococcus aureus
Assay: Antimicrobial activity against methicillin-resistant Staphylococcus aureus CBD-635 assessed as complete inhibition of bacterial growth after overnight incubation
Type: functional
Numbers only, in µM.

1) CCCCNc1nc(NCCCC)c2ccccc2n1	0.37
2) COc1ccc(CNc2nc(NCc3ccccc3)c3ccccc3n2)cc1	0.67
3) Clc1ccc(Nc2nc(NCc3ccco3)nc3ccccc23)cc1	29
4) Cc1ccc(CNc2nc(NCc3ccc(C)cc3)c3ccccc3n2)cc1	27
5) CC(C)Nc1nc(NCc2ccco2)c2cccc(Cl)c2n1	32
6) Clc1ccc(CNc2nc(NCc3ccccc3)nc3ccccc23)cc1	67

Record MIC per entry; entries follow.
1. Clc1ccc(CNc2nc(NCc3ccc(Cl)cc3)c3ccc(Cl)cc3n2)cc1
2. Clc1ccc(Nc2nc(NCc3ccco3)c3ccccc3n2)cc1

1: 68; 2: 29

Sourced from ChEMBL document CHEMBL3259619
